system: P. falciparum male gametocytes; test: P. falciparum Dual Gamete Formation Assay (PfDGFA), male readout (exflagellation); format: cell-based, Plasmodium falciparum NF54; conditions: PfDGFA at 2µM, 24h preincubation with gametocytes; replicate R1
property_name: % inhibition male (individual replicates) R1 (%)
Give just the numeric value; % need not be written.

Examples from the recorded data:
compound=CS(=O)(=O)O.FC(F)(F)COc1c(CNCCCCCCNCc2ccc3ccccc3c2OCC(F)(F)F)ccc2ccccc12 number=70.5
compound=CC1(C)CC(NCCCCCCCOc2ccc(OCc3ccccc3)cc2)CC(C)(C)N1.Cl number=71.0
compound=C[C@H](Cc1ccc(Oc2ccc(C[C@@H](C)NC[C@H](O)c3cccc(Cl)c3)cc2)cc1)NC[C@H](O)c1cccc(Cl)c1.Cl number=79.7

Given N=C(NCC1CC1c1ccccc1)c1cccc(C(=N)NCC2CC2c2ccccc2)n1 (stereo not shown) , respond with its % inhibition male (individual replicates) R1. 75.4

Given CCCCOc1ccc(C(=O)C(CCC(CNC(C)(C)C)C(=O)c2ccc(OCCCC)cc2)CNC(C)(C)C)cc1.Cl (stereo not shown) , respond with its % inhibition male (individual replicates) R1. 81.6

Given "COc1cc(NC(=O)c2sc(-c3ccc(Cl)cc3)cc2NC(=O)c2ccncc2)ccc1OCCN1CCCC1" , respond with its % inhibition male (individual replicates) R1. 92.1

Given "COc1ccc(N2CCN(CCCCNCc3ccc(NC(=O)c4cc(Cl)cc(Cl)c4)cc3)CC2)c(OC)c1" , respond with its % inhibition male (individual replicates) R1. 85.0
